Biological target: T1, 4H2248-AA
T1 chain: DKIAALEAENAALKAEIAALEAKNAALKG
Assay: two-hybrid library CCmax;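 note: natural log of median RNA to DNA barcode read ratio; higher means stronger binding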
Settings: mean of both orientations
Recorded endpoint: interaction score

1: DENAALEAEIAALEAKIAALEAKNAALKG [4H1064-AA]
2: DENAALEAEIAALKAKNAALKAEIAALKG [4H1146-AA]
Challenge: Param pair: 1 , 2 . Output: the one whose interaction score is numerically greater. Write down the label attached to your selection.
Response given: 2

I: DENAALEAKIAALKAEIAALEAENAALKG [4H1348-AA]
II: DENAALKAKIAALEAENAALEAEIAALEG [4H1809-AA]
Challenge: From the items above, decide which of I and II has the lower interaction score reading. Write down the label attached to your selection.
Response given: I
